- Test system: Vero E6 infected with SARS-CoV-2
- MEASUREMENT NOTES: morphology score (similarity to uninfected cells); higher = more like uninfected cells
- SETTINGS: 24 h
Where morphology score equals or exceeds 0.07, the correct label is 1; where it does not, the label is 0.

COMPOUND | GROUP
CC/C(=C(/c1ccc(OCCN(C)C)cc1)c1cccc(O)c1)c1ccccc1 [droloxifene] (10 µM) | 1
CCc1cncnc1N1CCN(Cc2nc3cc(C(F)(F)F)ccc3[nH]2)CC1 (10 µM) | 0
O=C(O)CNC(=O)c1c(O)c2ccccc2n(Cc2ccccc2)c1=O (10 µM) | 0
C[C@]12CCC(=O)C=C1CC[C@@H]1[C@@H]2CC[C@@]2(C)[C@H]1CC[C@]2(C)O [17-alpha-Methyltestosterone] (10 µM) | 1
O=C(Nc1ccc(S(=O)(=O)Nc2nccs2)cc1)C(c1ccccc1)c1ccccc1 (10 µM) | 0
CN(C)c1ccc2nc3ccc(=[N+](C)C)cc-3sc2c1 [methylene-blue] (0.833333 µM) | 1
Nc1ccn(C[C@@H](CO)OCP(=O)(O)O)c(=O)n1 [cidofovir] (10 µM) | 0

---

- System: Vero E6 infected with SARS-CoV-2
- MEASUREMENT NOTES: inhibition of SARS-CoV-2 cytopathic effect; higher = more antiviral protection, active = above 15
- SETTINGS: 1 nM; 48 h
Structures can show the parent of a compound that is named as a salt.
Documented inhibition of SARS-CoV-2 cytopathic effect across a set of compounds
RECORDED ENDPOINT: inhibition of SARS-CoV-2 cytopathic effect (%)

COMPOUND | DATA VALUE
NC(=O)[C@@H]1CC[C@@H]2CN1C(=O)N2OS(=O)(=O)O | -1.08
CCCn1c(=O)c2[nH]c(C3CCCC3)nc2n(CCC)c1=O | 2.33
O=C1NC(=O)[C@@H](c2cn3c4c(cccc24)CCC3)[C@@H]1c1c[nH]c2ccccc12 [tivantinib] | -0.36
CCCN1CCCC[C@H]1C(=O)Nc1c(C)cccc1C | 1.32
Cc1ccccc1N1CCN(S(=O)(=O)C[C@]23CC[C@H](C[C@@H]2NC(=O)[C@@H](N)CCS(C)(=O)=O)C3(C)C)CC1 | 0.06
CCCN(CCC)[C@H]1CCc2ccc(O)cc2C1 [7-hydroxy-DPAT] | 0.73
C=CC(=O)N1CCC[C@@H](n2nc(-c3ccc(Oc4ccccc4)cc3)c3c(N)ncnc32)C1 | -2.27
O=c1cc(N2CCOCC2)oc2c(-c3ccccc3)cccc12 | -0.31
CN1CCCN=C1COC(=O)C(O)(c1ccccc1)C1CCCCC1 (centres undefined) | 2.48
Cn1cc(C(F)(F)F)nc1-c1ccc(OCC(O)CNCCOc2ccc(O)c(C(N)=O)c2)cc1 (centres undefined) | -0.25
CC(O)CC(=O)O (stereo not drawn) [beta-hydroxybutyrate] | 7.02
O=C(O)c1ccc2nc(-c3cc(Cl)cc(Cl)c3)oc2c1 | -0.14
Oc1ccnc2cc(Cl)ccc12 | -2.22
O=C(O)CNC(=O)c1nc(Cl)c2ccccc2c1O | 0.76
CN(C)CCOc1ccc(/C(=C(/CCCl)c2ccccc2)c2ccccc2)cc1 [Toremifene citrate] | 0.8
CN(CCOP(=O)(O)O)C(=N)N [creatinol-phosphate] | -1.02
CCCCCCCCCCCCCCCCCCCCCC(=O)Nc1ccn([C@@H]2O[C@H](CO)[C@@H](O)[C@@H]2O)c(=O)n1 | -3
O=S(=O)(O)Oc1ccc(C(c2ccc(OS(=O)(=O)O)cc2)c2ccccn2)cc1 [sodium-picosulfate] | -1.14
Cc1cccc(CN2CCN(C(c3ccccc3)c3ccc(Cl)cc3)CC2)c1 (centres undefined) | 4.53
